Where do these numbers come from? They come from PubChem BioAssay (NCI).

# Tested on: RXF 393 renal
# ASSAY PROCEDURE: NCI-60 one-dose screen, 48 h
# CONDITION LABEL: 10 µM unless noted
This is part of a sample that, as a whole, favours compounds with a hit. Of some 83,000 tested, about 20% had one in any assay. Activity calls are given as the source filed them. Rule for the calls: active = growth percent below 10; inactive = the rest.
Labels: active, inactive

> print(dat)
                                    compound  class.label
 1  COCCn1cc(-c2csc(-c3c[nH]c4ccc(Br)cc34)n2)c2cccnc21     inactive
 2  O=C1c2cccc3cccc(c23)C(=O)N1C/C=C/c1ccc2c3c(cccc13)C(=O)N(CCO)C2=O     inactive
 3  COc1ccc(C(=O)N2c3ccccc3Sc3ccccc32)c(C(F)(F)F)c1     inactive
 4  O=C(C1CCCCC1)[C@@H]1[C@]2(C(=O)NC3CCCCC32)[C@@H]2CCCN2[C@@]12C(=O)NC1CCC(Cl)CC12 (stereo not given in full)       active
 5  S=C(c1ccc2c(c1)OCO2)N1CCN(c2cccc(Cl)c2)CC1     inactive
 6  CN1CCN(CCCOc2cccc3nc(Nc4ccc(F)c(F)c4)ccc23)CC1     inactive
 7  O=S(=O)(Nc1cc(Sc2cccc3cccnc23)c(O)c2ccccc12)c1ccccc1     inactive
 8  O=c1nc(-c2ccccc2)c2cc(-c3ccc(C(F)(F)F)nc3)ccc2[nH]1     inactive
 9  O=C(Nc1cc(Cl)ccc1O)c1cccc(Nc2ccnc(C(F)(F)F)c2)c1     inactive
10          CCOC(=O)C(Cc1ccc(OC)cc1)C(=O)OCC       active
